tested on: 991263-137-R1-J2-PDC complex spheroid viability; assay: Anticancer human tumor 991263-137-R1-J2-PDC patient-derived colon adenocarcinoma cell line growth inhibition [POLQ]; details: second compound 0.0316 µM; first compound 0.0316 µM; stronger effect = lower value
MEASURED METRIC: viability, T/C
# output: numeric value plus its unit

Some solved entries appear below for comparison.
Q: Fill in the recorded viability, T/C for this compound, with 991263-137-R1-J2-PDC complex spheroid viability as test system: COc1cc(C2c3cc4c(cc3C(OC3OC5COC(C)OC5C(O)C3O)C3COC(=O)C23)OCO4)cc(OC)c1O (stereo not given) + COC1C(OC(N)=O)C(O)C(Oc2ccc3c(O)c(NC(=O)c4ccc(O)c(CC=C(C)C)c4)c(=O)oc3c2C)OC1(C)C
A: 120%

Q: Would you mind doing C#Cc1c(F)ccc2cc(O)cc(-c3ncc4c(N5CC6CCC(C5)N6)nc(OCC56CCCN5CC(F)C6)nc4c3F)c12 (stereo not given) + Nc1ccc(C#CCN(C(=O)Cc2ncc(C(F)(F)F)cc2C(F)(F)F)c2ccc(F)cc2)nn1 as well?
A: 104%

Q: Would you mind doing CCCS(=O)(=O)Nc1ccc(F)c(C(=O)c2c[nH]c3ncc(-c4ccc(Cl)cc4)cc23)c1F + Cc1cccc(N(C)C(=O)C2C(O)CCN2c2nc(C)cc(C(F)(F)F)c2C#N)c1 as well?
A: 112%

Q: Would you mind doing CCc1c2c(nc3ccc(O)cc13)-c1cc3c(c(=O)n1C2)COC(=O)[C@]3(O)CC + COC1C(OC(N)=O)C(O)C(Oc2ccc3c(O)c(NC(=O)c4ccc(O)c(CC=C(C)C)c4)c(=O)oc3c2C)OC1(C)C as well?
A: 54.5%

Now turn to the next compound.
Q: Fill in the recorded viability, T/C for this compound, with 991263-137-R1-J2-PDC complex spheroid viability as test system: O=c1[nH]cc(F)c(=O)[nH]1 + Nc1ccc(C#CCN(C(=O)Cc2ncc(C(F)(F)F)cc2C(F)(F)F)c2ccc(F)cc2)nn1
A: 118%

---

tested on: 991263-137-R1-J2-PDC complex spheroid viability; assay: Anticancer human tumor 991263-137-R1-J2-PDC cell line growth inhibition [POLQ]; settings: second compound 1 µM; first compound 0.0316 µM; stronger effect = lower value;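 further: spheroids exposed to compounds for 7 days before readout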;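 on viability, T/C: 100% = DMSO vehicle control viability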
Below, each entry is listed alongside its reported viability, T/C.
Write down the numeric answer in % and omit the unit.

Q: What value of viability, T/C has been reported for the following compound? COc1cccc2c1C(=O)c1c(O)c3c(c(O)c1C2=O)CC(O)(C(=O)CO)CC3OC1CC(N)C(O)C(C)O1 (stereo not drawn) + Cc1cccc(N(C)C(=O)C2C(O)CCN2c2nc(C)cc(C(F)(F)F)c2C#N)c1
A: 92.8

Continuing:
Q: What value of viability, T/C has been reported for the following compound? COc1cccc2c1C(=O)c1c(O)c3c(c(O)c1C2=O)CC(O)(C(=O)CO)CC3OC1CC(N)C(O)C(C)O1 (stereo not drawn) + Nc1ccc(C#CCN(C(=O)Cc2ncc(C(F)(F)F)cc2C(F)(F)F)c2ccc(F)cc2)nn1
A: 88.6

Q: Would you mind doing CC1COCCN1c1cc(C2(S(C)(=N)=O)CC2)nc(-c2ccnc3[nH]ccc23)n1 (stereo not drawn) + Cc1cccc(N(C)C(=O)C2C(O)CCN2c2nc(C)cc(C(F)(F)F)c2C#N)c1 as well?
A: 98.7

---

tested on: 991263-137-R1-J2-PDC complex spheroid viability; assay: Anticancer human tumor 991263-137-R1-J2-PDC cell line growth inhibition [POLQ]; conditions: second compound 10 µM; first compound 0.1 µM; stronger effect = lower value;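 further: spheroids exposed to compounds for 7 days before readout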;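 on viability, T/C: 100% = DMSO vehicle control viability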
MEASURED METRIC: viability, T/C (%)
Write down the numeric answer in % and omit the unit.

Some solved entries appear below for comparison.
Q: Fill in the recorded viability, T/C for this compound, with 991263-137-R1-J2-PDC complex spheroid viability as test system: COc1cccc(OCCCN)c1-c1cc(Nc2cnc(C#N)cn2)n[nH]1 + Cc1cccc(N(C)C(=O)C2C(O)CCN2c2nc(C)cc(C(F)(F)F)c2C#N)c1
A: 76.1

Q: Would you mind doing COc1cc2cc(C(=O)CCC(=O)O)sc2cc1OC + COC1C(OC(N)=O)C(O)C(Oc2ccc3c(O)c(NC(=O)c4ccc(O)c(CC=C(C)C)c4)c(=O)oc3c2C)OC1(C)C as well?
A: 112

Q: Would you mind doing C=CC(=O)N1CCN(c2nc(=O)n(-c3c(C)ccnc3C(C)C)c3nc(-c4c(O)cccc4F)c(F)cc23)C(C)C1 (stereo not given) + Nc1ccc(C#CCN(C(=O)Cc2ncc(C(F)(F)F)cc2C(F)(F)F)c2ccc(F)cc2)nn1 as well?
A: 107

Q: Would you mind doing CC1COCCN1c1cc(C2(S(C)(=N)=O)CC2)nc(-c2ccnc3[nH]ccc23)n1 (stereo not given) + COC1C(OC(N)=O)C(O)C(Oc2ccc3c(O)c(NC(=O)c4ccc(O)c(CC=C(C)C)c4)c(=O)oc3c2C)OC1(C)C as well?
A: 106

Q: Would you mind doing CCc1c2c(nc3ccc(O)cc13)-c1cc3c(c(=O)n1C2)COC(=O)[C@]3(O)CC + COC1C(OC(N)=O)C(O)C(Oc2ccc3c(O)c(NC(=O)c4ccc(O)c(CC=C(C)C)c4)c(=O)oc3c2C)OC1(C)C as well?
A: 46.1

Q: Would you mind doing CC[C@@]1(O)C(=O)OCc2c1cc1n(c2=O)Cc2cc3c(CN(C)C)c(O)ccc3nc2-1 + COC1C(OC(N)=O)C(O)C(Oc2ccc3c(O)c(NC(=O)c4ccc(O)c(CC=C(C)C)c4)c(=O)oc3c2C)OC1(C)C as well?
A: 88.5

Continuing:
Q: Fill in the recorded viability, T/C for this compound, with 991263-137-R1-J2-PDC complex spheroid viability as test system: CC1COCCN1c1cc(-c2ccnn2C)c2ccnc(-c3ccn[nH]3)c2n1 (stereo not given) + Nc1ccc(C#CCN(C(=O)Cc2ncc(C(F)(F)F)cc2C(F)(F)F)c2ccc(F)cc2)nn1
A: 88.2

Q: Would you mind doing CCc1cc2c(N3CCc4c(cc(Cn5ccnc5)cc4-c4cn(C)nc4C(F)(F)F)C3=O)cc(C)nc2c(OC)n1 + Nc1ccc(C#CCN(C(=O)Cc2ncc(C(F)(F)F)cc2C(F)(F)F)c2ccc(F)cc2)nn1 as well?
A: 103

Q: Would you mind doing COc1cccc2c1C(=O)c1c(O)c3c(c(O)c1C2=O)CC(O)(C(=O)CO)CC3OC1CC(N)C(O)C(C)O1 (stereo not given) + Cc1cccc(N(C)C(=O)C2C(O)CCN2c2nc(C)cc(C(F)(F)F)c2C#N)c1 as well?
A: 78.3

Q: Would you mind doing COc1ccc([C@@H](O)c2cc(-c3ncnc4cc(N5CCOCC5)ccc34)c(F)cc2Cl)nn1 + COC1C(OC(N)=O)C(O)C(Oc2ccc3c(O)c(NC(=O)c4ccc(O)c(CC=C(C)C)c4)c(=O)oc3c2C)OC1(C)C as well?
A: 103

---

test system: 991263-137-R1-J2-PDC complex spheroid viability; test: Anticancer human tumor 991263-137-R1-J2-PDC cell line growth inhibition [POLQ]; details: curve of first compound; second compound 1 µM;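 further: spheroids exposed to compounds for 7 days before readout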
pIC50: −log10 of the molar value.
Below, each entry is listed alongside its reported pIC50.

Some solved entries appear below for comparison.
Q: What value of pIC50 has been reported for the following compound? O=C(c1cc(Cc2n[nH]c(=O)c3ccccc23)ccc1F)N1CCN(C(=O)C2CC2)CC1 + Cc1cccc(N(C)C(=O)C2C(O)CCN2c2nc(C)cc(C(F)(F)F)c2C#N)c1
A: < 5.00

Q: Would you mind doing COc1cccc(OCCCN)c1-c1cc(Nc2cnc(C#N)cn2)n[nH]1 + COC1C(OC(N)=O)C(O)C(Oc2ccc3c(O)c(NC(=O)c4ccc(O)c(CC=C(C)C)c4)c(=O)oc3c2C)OC1(C)C as well?
A: 6.34

Q: Would you mind doing C=CCn1c(=O)c2cnc(Nc3ccc(N4CCN(C)CC4)cc3)nc2n1-c1cccc(C(C)(C)O)n1 + Nc1ccc(C#CCN(C(=O)Cc2ncc(C(F)(F)F)cc2C(F)(F)F)c2ccc(F)cc2)nn1 as well?
A: < 6.00

Q: Would you mind doing C#Cc1c(F)ccc2cc(O)cc(-c3ncc4c(N5CC6CCC(C5)N6)nc(OCC56CCCN5CC(F)C6)nc4c3F)c12 (stereo not given) + COC1C(OC(N)=O)C(O)C(Oc2ccc3c(O)c(NC(=O)c4ccc(O)c(CC=C(C)C)c4)c(=O)oc3c2C)OC1(C)C as well?
A: < 5.00

Now turn to the next compound.
Q: What value of pIC50 has been reported for the following compound? CCc1cc2c(N3CCc4c(cc(Cn5ccnc5)cc4-c4cn(C)nc4C(F)(F)F)C3=O)cc(C)nc2c(OC)n1 + Nc1ccc(C#CCN(C(=O)Cc2ncc(C(F)(F)F)cc2C(F)(F)F)c2ccc(F)cc2)nn1
A: < 5.00
